Origin of measurements: PubChem BioAssay AID1159580

- assay-summary: chemical genetic growth profiling, strain panel (AID 1159580);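 note: tested at 20 µM; growth read once vehicle control cultures reached saturation at 30 °C; 1 = growth at the plate median or of vehicle wells; lower values mean less growth of the strain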
- experimental-context: S. cerevisiae deletion strains, growth OD, locus YOR290C, strain snf2, stronger effect = lower value
The whole screen tested about 5,500 compounds, of which about 2,000 (36%) were called active. About 18% were inconclusive and are not listed. Some of the results follow.
value-kind: normalized growth

Ask | Suppose we examine the compound `Cc1cc(C)nc(NS(=O)(=O)c2ccc(N)cc2)n1` ; what normalized growth value has been reported?
Reply | 0.943 (inactive)

Ask | Next compound up: CC(=O)OCC(=O)[C@@]1(O)CCC2C3CCC4=CC(=O)CC[C@]4(C)[C@@]3(F)[C@@H](O)C[C@@]21C (stereo not given in full)
Reply | 0.997 (inactive)

Ask | Next compound up: `Cn1cnc([N+](=O)[O-])c1Sc1ncnc2nc[nH]c12`
Reply | 1.04 (inactive)

Ask | Next compound up: `CC1(C)S[C@@H]2[C@H](NC(=O)COc3ccccc3)C(=O)N2[C@H]1C(=O)O`
Reply | 1.01 (inactive)

Ask | Next compound up: `c1coc(CNc2ncnc3nc[nH]c23)c1`
Reply | 0.991 (inactive)

###

- assay-summary: chemical genetic growth profiling, strain panel (AID 1159580);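 note: tested at 20 µM; growth read once vehicle control cultures reached saturation at 30 °C; 1 = growth at the plate median or of vehicle wells; lower values mean less growth of the strain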
- experimental-context: S. cerevisiae deletion strains, growth OD, locus YDL017W, strain CDC7, stronger effect = lower value
Hit rate of the full screen: of about 5,500 compounds, about 2,000 (36%) were called active. Not shown: some 18% with an inconclusive outcome. The list shows a part of the results.
Record form. Attribute: normalized growth. Fill in for each entry.
Give your answer as a number; write no unit.

Ask | Suppose we examine the molecule `N#C/C(=N/Nc1ccc(Cl)cc1)C(N)=S` ; what normalized growth value has been reported?
Reply | 0.616

Ask | Next molecule up: `N#CC(C#N)=NNc1ccc(-n2ccc(C(F)(F)F)n2)cc1`
Reply | 0.926

Ask | Next molecule up: `Cc1c(Cl)cccc1N=C1SCC(=O)N1Cc1ccco1`
Reply | 0.974

Ask | Next molecule up: `Cc1c(NCN2C(=O)CCC2=O)cc2c(c1[N+](=O)[O-])C(C)(C)CC2(C)C`
Reply | 0.961

Ask | Next molecule up: `Oc1ccc(-n2nnnc2SCc2ccc(OC(F)(F)F)cc2)cc1`
Reply | 0.982

Ask | Next molecule up: `N#Cc1c(N)sc2c1CCc1ccccc1-2`
Reply | 0.899

Ask | Next molecule up: `NNC(=O)COc1ccc(C2SCCS2)cc1`
Reply | 0.971

Ask | Next molecule up: `Cc1nc(C(F)(F)F)ccc1-c1nnc(SC(=O)c2ccc(Cl)cc2)o1`
Reply | 0.882

Ask | Next molecule up: `CC(/C=C/c1ccccc1)=N/OC(=O)c1ccccc1Cl`
Reply | 0.976

Ask | Next molecule up: `Cc1nc(C(F)(F)F)ccc1C(=O)Sc1nnc(-c2ccc(C(F)(F)F)nc2C)o1`
Reply | 0.951

Ask | Next molecule up: `O=C(NNc1c(Cl)cccc1Cl)c1ccc([N+](=O)[O-])o1`
Reply | 0.972

Ask | Next molecule up: `COc1cccc(C(=O)C(C#N)=C(SC)SC)c1`
Reply | 0.881

Ask | Next molecule up: CC1CCc2c(sc3ncnc(Sc4ccccc4)c23)C1 (centres undefined)
Reply | 0.981

Ask | Next molecule up: `N#C/C(=N/Nc1ccc(C(F)(F)F)cc1)C(=O)C1CC1`
Reply | 0.953

Ask | Next molecule up: FC(F)(F)c1ccc(C2Sc3ccccc3N=C3c4ccccc4CC32)cc1 (centres undefined)
Reply | 1.01

Ask | Next molecule up: `O=C(Nc1ccc(Cl)cc1)c1csc([N+](=O)[O-])c1`
Reply | 0.938

Ask | Next molecule up: `CCCCCc1ccc(-c2nc(SCC(C)=O)n[nH]2)cc1`
Reply | 0.957

Ask | Next molecule up: C(=NC(N=Cc1ccccc1)c1ccccc1)c1ccccc1 (centres undefined)
Reply | 0.99

Ask | Next molecule up: `N#CC(C#N)=NNc1cc(C(F)(F)F)ccc1OCC(F)(F)F`
Reply | 0.953

Ask | Next molecule up: `N#CC(C#N)=NNc1ccc(C(F)(F)F)cc1`
Reply | 0.178

Ask | Next molecule up: `O=C1CSC(=Nc2cc(Cl)cc(Cl)c2)N1Cc1cccnc1`
Reply | 0.991

Ask | Next molecule up: `O=C(Oc1ccc(C2SCCS2)cc1)c1cccs1`
Reply | 0.999

Ask | Next molecule up: `O=C(NCc1ccc(F)c(Cl)c1)Nc1csc([N+](=O)[O-])c1`
Reply | 0.981

Ask | Next molecule up: `O=S(=O)(Nc1cc(-c2cccs2)nn1-c1ccc(I)cc1)c1cccc(F)c1`
Reply | 0.97

###

- assay-summary: chemical genetic growth profiling, strain panel (AID 1159580);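 note: tested at 20 µM; growth read once vehicle control cultures reached saturation at 30 °C; 1 = growth at the plate median or of vehicle wells; lower values mean less growth of the strain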
- experimental-context: S. cerevisiae deletion strains, growth OD, locus YGL086W, strain mad1
About 2,000 (36%) of roughly 5,500 compounds were called active. Not shown: some 18% with an inconclusive outcome. Rule as the data show it: active = normalized growth mostly below about 0.91 (no sharp cut-off); inconclusive = no clear call, values can overlap the other calls; inactive = mostly above about 0.92. The list shows a part of the results.
Field 'call' accepts active, inactive

Ask | Can you look up the reported call for `Nc1ncnc2c1ncn2[C@@H]1O[C@H](CO)[C@@H](O)[C@@H]1O` for me?
Reply | inactive

Ask | Next compound up: `COc1c2c(cc3occ(-c4ccc5c(c4)OCO5)c(=O)c13)OC(C)(C)C=C2`
Reply | active

Ask | Next compound up: `COc1cc(OC)c(-c2c(OC)cc(OC)cc2OC)c(OC)c1`
Reply | inactive

Ask | Next compound up: `CCNc1nc(Cl)nc(NC(C)C)n1`
Reply | inactive

Ask | Next compound up: `CCCCC/C=C\C/C=C\C/C=C\C/C=C\CCCC(=O)O`
Reply | inactive

Ask | Next compound up: `COc1cc(O)c(C(=O)O)c(O)c1`
Reply | inactive

###

- assay-summary: chemical genetic growth profiling, strain panel (AID 1159580);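 note: tested at 20 µM; growth read once vehicle control cultures reached saturation at 30 °C; 1 = growth at the plate median or of vehicle wells; lower values mean less growth of the strain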
- experimental-context: S. cerevisiae deletion strains, growth OD, locus YLR262C, strain YPT6
Screen size: about 5,500 compounds; about 2,000 (36%) were called active. Roughly 18% stayed inconclusive and do not appear here. Rule as the data show it: active = normalized growth mostly below about 0.91 (no sharp cut-off); inconclusive = no clear call, values can overlap the other calls; inactive = mostly above about 0.92. This is one part of the list.
Field 'call' accepts active, inactive

Ask | Can you look up the reported call for `CC1(C)C[C@@H]2C(=O)CC[C@H]3O[C@]3(C)CC[C@H]21` for me?
Reply | inactive

Ask | Next molecule up: `COc1ccc(/C(C#N)=C/c2ccc(OC)c(OC)c2)cc1`
Reply | active

Ask | Next molecule up: `Cc1cccc(NCN2C(=O)CCC2=O)n1`
Reply | active

Ask | Next molecule up: `O=S(=O)(O)c1cccc2cccc(Cl)c12`
Reply | inactive

Ask | Next molecule up: `Cc1ccc(/C(C#N)=C2C=C/C(=N/O)C(Cl)=C\2Cl)cc1`
Reply | active

Ask | Next molecule up: `Nc1ncnc2c1ncn2[C@@H]1O[C@H](CO)[C@@H](O)[C@@H]1O`
Reply | inactive

Ask | Next molecule up: `CSC(=Nc1ccc(C(C)C)cc1)NC#N`
Reply | inactive

Ask | Next molecule up: `NCCS`
Reply | inactive

Ask | Next molecule up: C[C@]12CCC3C(CC[C@H]4CC(=O)CC[C@]34C)C1CCC2=O (stereo partly drawn)
Reply | active

Ask | Next molecule up: `Cn1cnc([N+](=O)[O-])c1Sc1ncnc2nc[nH]c12`
Reply | inactive

Ask | Next molecule up: `Cc1ccc(S(=O)(=O)/C(C#N)=N\O)cc1`
Reply | inactive

Ask | Next molecule up: `S=c1[nH]nc(-c2ccco2)n1-c1ccc2c(c1)OCCO2`
Reply | inactive

Ask | Next molecule up: `CCCCC/C=C\C/C=C\C/C=C\C/C=C\CCCC(=O)O`
Reply | inactive

Ask | Next molecule up: `c1ccc2c(c1)-c1cccc3cccc-2c13`
Reply | active

Ask | Next molecule up: `O=C(NC(=S)Nc1ccc(Cl)cc1)c1ccc([N+](=O)[O-])o1`
Reply | inactive

Ask | Next molecule up: `OCCN1CCN(CCCN2c3ccccc3Sc3ccc(Cl)cc32)CC1`
Reply | inactive

Ask | Next molecule up: `CN(C)c1nc(N(C)C)nc(N(C)C)n1`
Reply | inactive

Ask | Next molecule up: `CC1(C)S[C@@H]2[C@H](NC(=O)COc3ccccc3)C(=O)N2[C@H]1C(=O)O`
Reply | inactive

Ask | Next molecule up: CC1=C(C(=O)O)N2C(=O)[C@@H](NC(=O)[C@H](N)C3=CCC=CC3)C2SC1 (stereo partly drawn)
Reply | inactive

Ask | Next molecule up: `O=c1n(CCCN2CCN(c3cccc(Cl)c3)CC2)nc2ccccn12`
Reply | inactive

Ask | Next molecule up: CC(=O)O[C@@H]1CC2C(C)(C)C(=O)[C@@H]3O[C@@H]3[C@]2(C)C2CC[C@]3(C)C(=CC(=O)O[C@H]3c3ccoc3)[C@@]21C (stereo partly drawn)
Reply | inactive

Ask | Next molecule up: `CCOC(=O)CC1=Nn2c(nnc2-c2cc(Cl)cc(Cl)c2)SC1`
Reply | inactive

Ask | Next molecule up: `CC(C)(C)c1ccc(C(=O)N/N=C\c2cc(Cl)cc(Cl)c2O)cc1`
Reply | active
